Tested on: THP-1 cell viability, cytotoxicity
Assay: cytotoxicity in THP-1 cells, cytotoxicity control, cell-based (AID 504640)
Would you kindly list CC50 for each of these compounds?

[
  {
    "Compound": "Cc1nn2c(NCc3ccccn3)cc(C(C)C)nc2c1-c1ccccc1",
    "CC50": "2.88 µM"
  }
]

The following compounds each have a reported value; give each one's CC50.
1. COC(=O)c1cc(=O)n(-c2ccc(F)cc2)c(=Nc2ccc(F)cc2)s1
2. Oc1ccccc1/C=N/Nc1ccnc(SCc2ccccc2)n1
3. S=c1nc[nH]c2nc[nH]c12
4. CCOC(=O)C(C)Sc1ncnc2c1nnn2-c1ccc(F)cc1 (stereo not given)

17.6 µM
44.9 µM
0.56 µM
38.7 µM
